SUBJECT_OF_TEST: CLK1 (Homo sapiens, UniProt P49759)
Sequence (P49759 whole entry): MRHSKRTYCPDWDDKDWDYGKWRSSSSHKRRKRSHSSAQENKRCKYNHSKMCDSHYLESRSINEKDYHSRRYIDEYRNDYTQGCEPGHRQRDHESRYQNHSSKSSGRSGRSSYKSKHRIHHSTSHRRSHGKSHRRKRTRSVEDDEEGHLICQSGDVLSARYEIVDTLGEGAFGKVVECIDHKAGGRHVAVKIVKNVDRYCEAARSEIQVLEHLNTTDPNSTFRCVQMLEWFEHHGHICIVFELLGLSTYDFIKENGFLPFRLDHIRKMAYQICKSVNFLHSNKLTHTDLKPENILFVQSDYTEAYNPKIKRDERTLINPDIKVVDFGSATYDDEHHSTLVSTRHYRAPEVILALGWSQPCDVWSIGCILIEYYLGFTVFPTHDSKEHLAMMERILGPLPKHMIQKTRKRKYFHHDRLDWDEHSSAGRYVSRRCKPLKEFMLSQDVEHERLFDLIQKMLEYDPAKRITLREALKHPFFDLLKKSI
METHOD_DESCRIPTION: KINOMEscan competition binding
EXPERIMENTAL_CONDITIONS: read-out: %Inh CLK1
RECORDED_METRIC: inhibition at 1 µM (%)
State the answer as a number, implicitly in %.

For orientation, consider the following solved cases.
Cc1ccc(NC(=O)Nc2cccc(C(F)(F)F)c2)cc1 [UNC10225187A] : 3
O=c1cc(N2CCOCC2)nc2n(Cc3cccc(Cl)c3Cl)c(C3CC3)nn12 [UNC10225469A] : 27

Now look at this one.
Q: Which inhibition at 1 µM is listed for COc1cccc(OC)c1C(=O)Nc1cccc(-c2nn3ccccc3c2-c2ccnc(Nc3cccc(F)c3)n2)c1 [UNC10225310A] ?
Ans: 21
